biological target: HLA-A*68:02; assay: IEDB peptide-MHC binding, purified MHC/competitive/radioactivity; filed as Kd, often an IC50 or EC50 that approximates it; bounds were set here for any values at or beyond the usual limits of such assays; settings: source organism: Dengue virus 3 Martinique/1243/1999
Answer each item with its documented pKd.
Give bare numbers, as −log10 of the molar value.

LASNAICSAV
7.54

From here, focus on the item given below.
Prompt: Query pKd on HLA-A*68:02 for "TVVVGDIIGV"
Response: 8.73

###

biological target: HLA-A*33:01; test: IEDB peptide-MHC binding, purified MHC/competitive/radioactivity; filed as Kd, often an IC50 or EC50 that approximates it; bounds were set here for any values at or beyond the usual limits of such assays; conditions: source organism: Dengue virus 1 Nauru/West Pac/1974
attribute_measured: pKd
Answers are plain numbers, as −log10 of the molar value.

Prompt: Which pKd value is on record for "GVTLFFLSGR" ?
Response: 7.25
